Provide the reported log10(IC50) of each item.
Test Target: Urokinase (uPA not bound to uPAR) (Homo sapiens, UniProt P00749)
Assay Remarks: ENZ: Urokinase-activity-assay (uPA not bound to uPAR)
Assay type: biochemical
Test Parameters: assay without uPAR; read-out: IC50 (µg/ml) ENZ (converted)
Structures can show the parent of a compound that is named as a salt.
Values below are the log10 of the recorded IC50, with nM as the unit.

So for `O=S(=O)(O)c1ccc(-c2c3nc(c(-c4ccc(S(=O)(=O)O)cc4)c4ccc([nH]4)c(-c4ccc(S(=O)(=O)O)cc4)c4nc(c(-c5ccc(S(=O)(=O)O)cc5)c5ccc2[nH]5)C=C4)C=C3)cc1` , the logged log10(IC50) turned out to be 2.83

Record summary for C=Cc1c(C)c2cc3nc(c(CC(=O)O)c4[nH]c(cc5nc(cc1[nH]2)C(C)=C5CC)c(C)c4C(=O)O)[C@@H](CCC(=O)O)[C@@H]3C [Chlorin e6] : reported log10(IC50) = 3.37

Record CC1=C(CCC(=O)O)c2cc3[nH]c(cc4nc(cc5[nH]c(cc1n2)c(C)c5C(O)CO)C(C)=C4C(O)CO)c(C)c3CCC(=O)O (stereo not shown) [Deuteroporphyrin IX 2,4-Bis Glycol] , field log10(IC50): 3.63

The molecule identified as CCOC(=O)CCC1=C(C)c2cc3[nH]c(cc4nc(cc5[nH]c(cc1n2)c(C)c5CCC(=O)OCC)C(CCC(=O)OCC)=C4C)c(C)c3CCC(=O)OCC [Coproporphyrin III tetraethylester] registered its log10(IC50) at 4.98

The molecule listed as `COC(=O)CCC1=C(C)c2cc3[nH]c(cc4nc(cc5[nH]c(cc1n2)c(CCC(=O)OC)c5C)C(S(=O)(=O)O)=C4C)c(S(=O)(=O)O)c3C` shows log10(IC50) equal to 3.55

The reported value for CCC1=C(C)c2cc3[nH]c(cc4nc(cc5[nH]c(cc1n2)c(C)c5CCC(=O)O)C(CCC(=O)O)=C4C)c(C)c3CC [Mesoporphyrin IX Dihydrochloride] in terms of log10(IC50) is 3.33

Short answer for O=C(O)c1ccc(-c2c3nc(c(-c4ccc(C(=O)O)cc4)c4ccc([nH]4)c(-c4ccc(C(=O)O)cc4)c4nc(c(-c5ccc(C(=O)O)cc5)c5ccc2[nH]5)C=C4)C=C3)cc1 [meso-tetra-(4-Carboxyphenyl)-Porphine] : log10(IC50) was 2.93

----------
Test Target: human urokinase (uPA) binding to its specific receptor (uPAR) (Homo sapiens)
Sequence (Q03405 23-305 limits assumed): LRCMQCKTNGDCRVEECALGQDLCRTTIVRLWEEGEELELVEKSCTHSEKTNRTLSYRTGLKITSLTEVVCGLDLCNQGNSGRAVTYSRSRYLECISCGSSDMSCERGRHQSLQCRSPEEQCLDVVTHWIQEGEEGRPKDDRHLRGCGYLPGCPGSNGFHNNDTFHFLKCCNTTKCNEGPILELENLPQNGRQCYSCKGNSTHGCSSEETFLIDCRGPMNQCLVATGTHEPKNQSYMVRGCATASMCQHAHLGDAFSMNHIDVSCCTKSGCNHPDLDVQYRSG
Assay Remarks: ELISA-Test: inhibition of uPA binding to its specific receptor (uPAR)
Test Parameters: synthetic or commercially available porphyrins, read-out: IC50 (µg/ml) ELISA (converted)
Structures can show the parent of a compound that is named as a salt.
Readout Type: IC50
Field note: include the unit after the figure.

// sample CCC1=C(C)c2cc3[nH]c(cc4nc(cc5[nH]c(cc1n2)c(C)c5CCC(=O)O)C(CCC(=O)O)=C4C)c(C)c3CC [Mesoporphyrin IX Dihydrochloride] , its IC50 was 406 nM

Input O=C(O)c1ccc(-c2c3nc(c(-c4ccc(C(=O)O)cc4)c4ccc([nH]4)c(-c4ccc(C(=O)O)cc4)c4nc(c(-c5ccc(C(=O)O)cc5)c5ccc2[nH]5)C=C4)C=C3)cc1 [meso-tetra-(4-Carboxyphenyl)-Porphine] . Output IC50: 266 nM

Documented IC50 of CC1=C(CCC(=O)O)c2cc3[nH]c(cc4nc(cc5[nH]c(cc1n2)c(C)c5C(O)CO)C(C)=C4C(O)CO)c(C)c3CCC(=O)O (stereo not shown) [Deuteroporphyrin IX 2,4-Bis Glycol] : 8400 nM

// IC50 lookup, compound = C=Cc1c(C)c2cc3nc(c(CC(=O)O)c4[nH]c(cc5nc(cc1[nH]2)C(C)=C5CC)c(C)c4C(=O)O)[C@@H](CCC(=O)O)[C@@H]3C [Chlorin e6] , result: 520 nM
